Origin of measurements: PubChem BioAssay

measured.on: Follistatin-related protein 3 (Homo sapiens)
protocol.text: FSTL3 binders on small-molecule microarrays, primary screen, biochemical, small-molecule microarray, 635 nm fluorescence (AID 1105);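 further: score merges emission near 667 nm and signal to noise per printed spot across three slides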
conditions.used: FSTL3 binding, higher = more signal
measured.parameter: composite z-score
I only need the number, thanks.

// known answers, use as guide
COC(=O)[C@@H]1CCCN1C(=O)[C@@H](C)CO; 0.592
COC(=O)[C@]1(CO)N=C(c2ccc(OCCCO)cc2)O[C@@H]1c1ccccc1N=[N+]=[N-]; 0.393
COCCCNC(=O)[C@]1(CCC(=O)OC(C)(C)C)N=C(c2ccc(OCCCO)cc2)O[C@@H]1c1ccccc1N=[N+]=[N-]; 1.06
CCCCc1nc2c(c3c1C[C@H](C)OC3)CN(CCC(C)C)CC2; 1.26
CCCC=C(CCC)[C@@H](NC(=O)c1ccc(-c2ccccc2)cc1)c1ccc(C(=O)OC)cc1; 0.0286

Task item: Fill in composite z-score for record Cc1ccc(C2CC=C(C(=O)O)CN2S(=O)(=O)c2ccc(C)cc2)cc1 (stereo not drawn)
Reply: 0.338

Task item: Fill in composite z-score for record [N-]=[N+]=NCc1ccccc1C[C@]1(C(=O)NCc2ccccc2)N=C(c2ccc(OCCCO)cc2)O[C@H]1c1ccccc1N=[N+]=[N-]
Reply: 0.188

Task item: Fill in composite z-score for record O=C1O[C@@H](c2ccccc2)[C@@H](c2ccccc2)N2[C@@H](c3ccc(O)cc3)[C@]3(C(=O)Nc4ccccc43)[C@@H](C(=O)O)[C@H]12
Reply: -0.0238
